Quick record: pKi, Sodium-dependent dopamine transporter (Rattus norvegicus).
pKi: −log10 of the molar value.

smiles.text: CCCN1CCC[C@@H](c2cccc(O)c2)C1
assay.target: Sodium-dependent dopamine transporter (Rattus norvegicus)
Sequence (P23977 whole entry): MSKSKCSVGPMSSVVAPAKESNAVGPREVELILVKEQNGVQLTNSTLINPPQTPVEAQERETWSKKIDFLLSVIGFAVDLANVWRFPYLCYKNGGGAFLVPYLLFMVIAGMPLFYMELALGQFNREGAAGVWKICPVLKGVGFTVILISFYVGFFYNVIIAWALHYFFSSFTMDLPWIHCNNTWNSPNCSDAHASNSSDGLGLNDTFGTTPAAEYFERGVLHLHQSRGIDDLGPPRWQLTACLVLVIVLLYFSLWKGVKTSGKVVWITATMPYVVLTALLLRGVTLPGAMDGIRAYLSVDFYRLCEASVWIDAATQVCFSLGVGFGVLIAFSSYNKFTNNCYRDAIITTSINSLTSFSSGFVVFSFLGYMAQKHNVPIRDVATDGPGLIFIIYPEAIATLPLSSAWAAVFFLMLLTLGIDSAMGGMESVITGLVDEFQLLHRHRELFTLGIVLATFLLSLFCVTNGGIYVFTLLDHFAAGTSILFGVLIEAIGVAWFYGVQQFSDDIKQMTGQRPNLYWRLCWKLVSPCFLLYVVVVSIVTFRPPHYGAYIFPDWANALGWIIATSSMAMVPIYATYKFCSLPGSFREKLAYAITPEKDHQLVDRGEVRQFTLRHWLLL
pKi: 5.49
--
smiles.text: Fc1ccc(N(CCCN2CCN(Cc3ccccc3)CC2)c2ccc(F)cc2)cc1
assay.target: Sodium-dependent dopamine transporter (Rattus norvegicus)
pKi: 7.56
--
smiles.text: Fc1ccc(N(CCCN2CCNCC2)c2ccc(F)cc2)cc1
assay.target: Sodium-dependent dopamine transporter (Rattus norvegicus)
pKi: 7.22
--
smiles.text: C[C@@H]1CN(CCCn2c3ccc([N+](=O)[O-])cc3c3cc([N+](=O)[O-])ccc32)C[C@@H](C)N1
assay.target: Sodium-dependent dopamine transporter (Rattus norvegicus)
pKi: 3.76
--
smiles.text: CCN(CC)CCOC(=O)C1(c2ccccc2)CCCC1
assay.target: Sodium-dependent dopamine transporter (Rattus norvegicus)
pKi: 5.29
--
smiles.text: C[C@@H]1CN(CCCn2c3ccccc3c3ccccc32)C[C@@H](C)N1CCCc1ccccc1
assay.target: Sodium-dependent dopamine transporter (Rattus norvegicus)
pKi: 6.58

----------
Target: Monoamine transporters; Norepininephrine & dopamine (Rattus norvegicus) (UniProt P23977+Q9WTR4)
Assay: Ratio of binding affinities for dopamine and norepinephrine transporters
Format: protein assay
Listed here: items and their measured Ratio.

smiles.text: C[C@@H]1CN(CCCN(c2ccccc2)c2ccccc2)C[C@@H](C)N1CCc1ccc(Cl)c(Cl)c1
sign.qualifier: >
Ratio: 110
--
smiles.text: Fc1ccc(N(CCCN2CCNCC2)c2ccc(F)cc2)cc1
sign.qualifier: =
Ratio: 7
--
smiles.text: C[C@@H]1CN(CCCN(c2ccccc2)c2ccccc2)C[C@@H](C)N1CCCc1ccccc1
sign.qualifier: =
Ratio: 60
--
smiles.text: Fc1ccc(N(CCCN2CCN(CCCc3ccccc3)CC2)c2ccc(F)cc2)cc1
sign.qualifier: =
Ratio: 38
--
smiles.text: C[C@@H]1CN(CCCN(c2ccc(F)cc2)c2ccc(F)cc2)C[C@@H](C)N1CCCc1ccccc1
sign.qualifier: =
Ratio: 45
--
smiles.text: C[C@@H]1CN(CCCN(c2ccccc2)c2ccccc2)C[C@@H](C)N1
sign.qualifier: =
Ratio: 8
